Experiment: LNP average particle size and polydispersity by dynamic light scattering
Type: physicochemical
Conditions: LNP with 50% ionizable lipid, 38% cholesterol, 9% DSPC, 3% C13 Ether (LNP #1, Compound 53: 3% PEG2K-DMG instead); sgRNA:mRNA 1:2
Result type: Z-avg (average particle size) (nm)

compound="CCCCCCCCC(CCCCCCCC)OC(=O)CCCC(=O)OCC(COC(=O)CCCC(=O)OC(CCCCCCCC)CCCCCCCC)COC(=O)NCCN(CC)CC [Compound 6]" result_type="Z-avg (average particle size)" reported=81
compound="CCCCCCCCC(CCCCCCCC)OC(=O)CCCCCCC(=O)OCC(CC)(COC(=O)CCCCCCC(=O)OC(CCCCCCCC)CCCCCCCC)COC(=O)NCCN(CC)CC [Compound 66]" result_type="Z-avg (average particle size)" reported=78
compound="CCCCCCCCC(CCCCCCCC)OC(=O)CCCC(=O)OCC(COC(=O)CCCC(=O)OC(CCCCCCCC)CCCCCCCC)COC(=O)OCCCN1CCCC1 [Compound 33]" result_type="Z-avg (average particle size)" reported=73
